- Protocol: In vivo pharmacokinetics in rats (i.v., oral, intratracheal)
- Measurement conditions: i.v., mean of n = 3
- Protocol: Rat PK was determined after an i.v. dose of 0.1μmol/kg (approximately 50μg/kg, 1ml/kg, TEG:H2O 50:50) given via a catheter in vena jugularis. […] Intratracheal PK was determined at 0.03 to 0.6μmol/kg (17 to 300μg/kg, 1ml/kg, in a vehicle containing sodium chloride (8.5mg/ml), EDTA (0.1mg/ml), citric acid (0.15mg/ml), sodium citrate (0.5mg/ml) and polysorbate 80 (0.2mg/mL) in purified water). […] The lung vials were stored at –70°C until analyzed. […]
Outcome measure: Rat blood clearance (mL/min per kg)
The answer is to be given in mL/min per kg; state only the numeric part.

# Compound, Value
data = [
    ("CCNC(=O)[C@H]1O[C@@H](n2cnc3c(NC(CC)CC)nc(NCCNC(=O)Nc4cc[n+](C)cc4)nc32)[C@H](O)[C@@H]1O", 19),
    ("CCNC(=O)[C@H]1O[C@@H](n2cnc3c(N)nc(NCCc4ccc(CCC(=O)O)cc4)nc32)[C@H](O)[C@@H]1O [CGS21680, reference compound]", 26),
    ("CCNC(=O)[C@H]1O[C@@H](n2cnc3c(NCC(c4ccccc4)c4ccccc4)nc(NCCNC(=O)Nc4cc[n+](C)cc4)nc32)[C@H](O)[C@@H]1O", 42),
    ("CCNC(=O)[C@H]1O[C@@H](n2cnc3c(NC(CC)CC)nc(NCCNC(=O)Nc4ccncc4)nc32)[C@H](O)[C@@H]1O", 65),
]

**Q:** Give the measured Rat blood clearance of CCNC(=O)[C@H]1O[C@@H](n2cnc3c(NCC(c4ccccc4)c4ccccc4)nc(C(=O)NCCNC(=O)NC4CCN(c5ccccn5)CC4)nc32)[C@H](O)[C@@H]1O [UK-432,097, reference compound] .
**A:** 37

The origin of these recorded values is paper PMC4492750.
